// provenance: the array DNA melting data of Ke et al. (doi:10.1101/2024.01.08.574731)

test: melting temperature; fluorescence melt of hairpins on a sequencing array, two-state fit, raised by 9.35 °C to match UV melts; settings: sodium 0.088 M
Threshold-based label: Tm under 50 °C gives True, Tm not under 50 °C gives False.

SEQUENCE INPUT	ANSWER LABEL
GATCGGAAGGCCGATC ((((((....))))))	False
GATCACCCGGGTGATC ((((((....))))))	False
GACTCGCGAAAGCGTGTC (((.(((....))).)))	False
GATCCTTTCGAGGATC ((((((....))))))	False
GATCGGTAAACCGATC ((((((....))))))	False
GCTCACGAAAGTGTAAGC ((((((....)))..)))	True
GTAGGCGGAAACGCTTGC (.(.(((....))).).)	True
GTCTTCGCGAAAGCGGAC (((..(((....))))))	True
GATCGACACATCGATC ((((((....))))))	False
GATCAACTGGTTGATC ((((((....))))))	False

---

test: folding enthalpy; higher = less favourable; fluorescence melt of hairpins on a sequencing array, two-state fit; conditions: sodium 0.088 M
Below, each of the sequences is paired with its reported folding enthalpy value.
PARAMETER: folding enthalpy (kcal/mol)

SEQUENCE INPUT	RESULT VALUE
GGTCGCGAAAGCGCCACC ((((((....)))..)))	-11.2
GGTATTGGAAACGATACC (((((.(....).)))))	-33.4
GCACAGCGAAAGCCGCGC ((.(.((....)).).))	-20.3
GGGGTACCGAAAGGTCCC (((..(((....))))))	-27.5
GATGACGAAAGTCCGATC ((((((....)))..)))	-12.8
GTTTCTGGAAACAGGAAC (((.(((....))).)))	-30.4
GCTTTGCGAAAGCTCAGC (((..((....))..)))	-14.4
GCATCAGGAAACTGACGC ((.((((....)))).))	-30
GATCAGCAGGCTGATC ((((((....))))))	-42.1
GGGGTTGGAAACGACCTC (.(((.(....).))).)	-20.7
GATCTACCATAGATC ((((((...))))))	-30.5
GTTAGTGGAAACACCAAC (((.(((....))).)))	-13.3
CGTGAGAAATCACG (((((....)))))	-25.8
GTTTACGAAAGTAAAAC ((((((....))).)))	-16.8
GCCCACGGAAACGTAGGC (((.(((....))).)))	-30.6
GCGAGATATCGC ((((....))))	-24.3
GCCGGGCGAAAGCGAGGC (((..((....))..)))	-43.3
GTCACCGAAAGGTACGAC ((((((....)))..)))	-18
GGATGAGGAAACTCGTTC (.(.(((....))).).)	-15.8
GTAAAGCGAAAGCTTAC (((.(((....))))))	-12.8
GTCGTCGCGAAAGCGGAC (((..(((....))))))	-10.6
GATCGAGCTATCGATC ((((((....))))))	-43.4
GCGATATCGAAAGATCGC (((..(((....))))))	-30.7
GTCCCCGGAAACGGGAAC ((.((((....)))).))	-15.1
GCATGCGAAAGCAGGTGC ((((((....)))..)))	-23.2
GCAATGCGAAAGCGTGGC ((.(.((....)).).))	-33.7
GCACCGCGAAAGCTTTGC (((..((....))..)))	-12
GATCCCGCTTGGGATC ((((((....))))))	-46.9
GATCTCCGGAGAGATC ((((((....))))))	-39.4
GGCGACGAAAGTCCGGCC ((((((....)))..)))	-21.7
AGTTCGAAAGAACT (((((....)))))	-20.8
GCTCTGCGAAAGCTTAGC (((..((....))..)))	-18.5
GCACCTACGAAAGTATGC (((..(((....))))))	-13.5
GACCGTGGAAACACGATC ((.((((....)))).))	-19.1
GGTTCTCGAAAGAGTACC (((.(((....))).)))	-26.1
GTGACACGAAAGTGCAC (((.(((....))))))	-17.3
GCTTAGACGAAAGTCAGC (((..(((....))))))	-18.2
GCGTGCGGAAACGCACAC (.(((((....))))).)	-8.53
GTTGATGGAAACATTGAC ((..(((....)))..))	-13.7
GCAGTACGAAAGTATGC (((.(((....))))))	-31.3
GAAACCCCGAAAGGGTTC (((..(((....))))))	-14
GCTTGGCGAAAGCACAGC (((..((....))..)))	-18.2
GGAAACGAAAGTTTCC ((((((....))))))	-34.6
GACAGCGAAAGCTCGGTC ((((((....)))..)))	-10.6
GAGTCCGAAAGGAGACTC ((((((....)))..)))	-21.9
GTATGGGAAACCATAC ((((((....))))))	-36.9
GCCAGGCGAAAGCTTAGC ((.(.((....)).).))	-10.9
GCTTCCGAAAGGATTAGC ((((((....)))..)))	-23.2
GCTCAGGCGAAAGCCAGC (((..(((....))))))	-12.6
GATCGGACCCCCGATC ((((((....))))))	-32.9

---

Below, each of the sequences is paired with its reported Tm value.
assay: melting temperature; fluorescence melt of hairpins on a sequencing array, two-state fit, raised by 9.35 °C to match UV melts; settings: sodium 0.088 M

SEQUENCE INPUT	Tm, °C
GATCGCAAGAGCGATC ((((((....))))))	67.8
GACGATGAAAATCGTC ((((((....))))))	61.1
GCTCAGGGAAACCCAAGC (((..((....))..)))	33.3
GTCTAGACGAAAGTCGAC (((..(((....))))))	39.6
GAGTCAGGAAACTGACTC (((((((....)))))))	62.6
GGCTTGGGAAACCAAGTC (.(((((....))))).)	52.4
GTGTACCGAAAGGTGCAC (((.(((....))).)))	65.2
GTTCGCGAAAGCGGGAAC ((((((....)))..)))	40.7
GGAGCCGGAAACAGCTCC (((((.(....).)))))	51.3
GATCCGTCACCGGATC ((((((....))))))	57.2
GTCTTGGCGAAAGCCGAC (((..(((....))))))	37.5
GCAGAGCGAAAGCGCAGC ((.(.((....)).).))	59.6

---

Below, each of the sequences is paired with its reported Tm value.
assay: melting temperature; fluorescence melt of hairpins on a sequencing array, two-state fit, raised by 9.35 °C to match UV melts; settings: sodium 0.088 M
PARAMETER: Tm

SEQUENCE INPUT	PARAMETER	RESULT VALUE
GGTACGGGAAACCGTACC (((((((....)))))))	Tm	67.8 °C
GTTGGGGGAAACCCCAGC (.(((((....))))).)	Tm	49.8 °C
GAAAACGAAAGTTGCTTC ((((((....)))..)))	Tm	33.1 °C
GAATGTGGAAACACATCC (.(((((....))))).)	Tm	36 °C
GATCGCCGAAAGGCAATC (((.(((....))).)))	Tm	44.8 °C
GATCAATTCTTGATC ((((((...))))))	Tm	44.8 °C
GTGTTGGGAAACCAATGC (..((((....))))..)	Tm	38 °C
GGACCGGGAAACTGGTCC (((((.(....).)))))	Tm	58.2 °C
GCGCCCGTGCGC ((((....))))	Tm	66.5 °C
GATCCGCCGTCGGATC ((((((....))))))	Tm	56.9 °C
GCCGTGCGAAAGCAGCGC ((..(((....)))..))	Tm	55.9 °C
GATCTGACCCAGATC ((((((...))))))	Tm	47.7 °C
GAGGTTGGAAACGACCTC (((((.(....).)))))	Tm	51.3 °C
GATCTCCATAGAGATC ((((((....))))))	Tm	56.8 °C
GCGTATGAAAATACGC ((((((....))))))	Tm	63 °C
GCTGCGCGAAAGCAGAGC (((..((....))..)))	Tm	47.7 °C
GATCTTAAGAAGATC ((((((...))))))	Tm	40.5 °C
GGAAGCGAAAGCTCCTCC ((((((....)))..)))	Tm	51.3 °C
GCGTACGGAAACACACGC ((((..(....)..))))	Tm	38.8 °C
GGGGCTGGAAACGGCCCC (((((.(....).)))))	Tm	66.8 °C
GATCTCAGGCGAGATC ((((((....))))))	Tm	51.5 °C
GATCAACGGGTTGATC ((((((....))))))	Tm	56.8 °C
GGCTCTCGAAAGAGGGCC (((.(((....))).)))	Tm	64.7 °C
GGTCTCGAAAGAGGGACC ((((((....)))..)))	Tm	44 °C
GCGACTGGAAACAATCGC ((((.((....)).))))	Tm	45.5 °C
